- Measured On: T1, biotin-MBP-tagged AtHAB1 (residues 172-511), Q9CAJ0
- T1 chain: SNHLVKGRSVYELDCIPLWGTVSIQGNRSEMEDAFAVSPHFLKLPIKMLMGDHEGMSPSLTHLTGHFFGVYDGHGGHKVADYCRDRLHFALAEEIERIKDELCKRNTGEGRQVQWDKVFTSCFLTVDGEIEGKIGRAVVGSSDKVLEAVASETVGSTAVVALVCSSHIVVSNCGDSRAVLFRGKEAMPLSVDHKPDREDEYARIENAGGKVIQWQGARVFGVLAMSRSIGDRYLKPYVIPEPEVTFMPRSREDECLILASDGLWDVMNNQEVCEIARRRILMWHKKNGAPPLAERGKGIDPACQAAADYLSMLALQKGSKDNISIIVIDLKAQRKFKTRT
- Assay Text: AlphaScreen
- Condition Description: chain shown with the change; ABA (2 μM); parent: est. 6900; read off a plot
Observed Property: response (photon counts)

Problem: Given H6-SUMO-tagged FePYR1 G103A (protein) MEQQPAAAEPEVPAGLGLTAAEYAELQPTVEAYHRYAVGPGQCSSLVAQRIEAPAAAVWAIVRRFDCPQVYKHFIRSCALRPDPDAGDELRPGRLREVSVISALPASTSTERLDLLDDARRAFGFTITGGEHRLANYRSVTTVSELAPAAPAKICTVVLESYVVDVPEGNSEEDTRLFADTVVRLNLQKLKSLAEANATSAAAQATPPPQAE , state its recorded response (photon counts).
Solution: 700

Problem: State the recorded response (photon counts) for this entry: H6-SUMO-tagged FePYR1 P105A (protein) MEQQPAAAEPEVPAGLGLTAAEYAELQPTVEAYHRYAVGPGQCSSLVAQRIEAPAAAVWAIVRRFDCPQVYKHFIRSCALRPDPDAGDELRPGRLREVSVISGLAASTSTERLDLLDDARRAFGFTITGGEHRLANYRSVTTVSELAPAAPAKICTVVLESYVVDVPEGNSEEDTRLFADTVVRLNLQKLKSLAEANATSAAAQATPPPQAE
Solution: 1400

Problem: response (photon counts) for H6-SUMO-tagged FePYR1 E131A (protein) MEQQPAAAEPEVPAGLGLTAAEYAELQPTVEAYHRYAVGPGQCSSLVAQRIEAPAAAVWAIVRRFDCPQVYKHFIRSCALRPDPDAGDELRPGRLREVSVISGLPASTSTERLDLLDDARRAFGFTITGGAHRLANYRSVTTVSELAPAAPAKICTVVLESYVVDVPEGNSEEDTRLFADTVVRLNLQKLKSLAEANATSAAAQATPPPQAE ?
Solution: 4100

Problem: Form field: reported response (photon counts) of H6-SUMO-tagged FePYR1 R133A (protein) MEQQPAAAEPEVPAGLGLTAAEYAELQPTVEAYHRYAVGPGQCSSLVAQRIEAPAAAVWAIVRRFDCPQVYKHFIRSCALRPDPDAGDELRPGRLREVSVISGLPASTSTERLDLLDDARRAFGFTITGGEHALANYRSVTTVSELAPAAPAKICTVVLESYVVDVPEGNSEEDTRLFADTVVRLNLQKLKSLAEANATSAAAQATPPPQAE
Solution: 600
